Numbers sourced from patent US20030119748A1.

The reader will find reported pKi values listed item by item below.
Biological target: mICE (Mus musculus, UniProt P29452)
Sequence (P29452 119-402): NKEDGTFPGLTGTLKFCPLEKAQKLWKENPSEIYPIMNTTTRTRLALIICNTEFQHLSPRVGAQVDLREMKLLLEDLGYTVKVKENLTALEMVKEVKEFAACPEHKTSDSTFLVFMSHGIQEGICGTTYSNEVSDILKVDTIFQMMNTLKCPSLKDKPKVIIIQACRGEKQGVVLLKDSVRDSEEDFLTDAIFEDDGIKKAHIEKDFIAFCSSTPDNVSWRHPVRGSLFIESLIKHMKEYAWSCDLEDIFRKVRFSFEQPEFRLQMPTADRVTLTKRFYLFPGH
Assay: Dissociation constant Ki for irreversible inhibitors, continuous assay (Example 1B)
Conditions: compounds of Formula B and Formula C, procedure of Example 1B
Source text: B. Determination of the Dissociation Constant K1 and Irreversible Rate Constant k3 for Irreversible Inhibitors For the irreversible inhibition of a ICE/ced-3 Family Protease enzyme with a competitive irreversible inhibitor; using the model represented by the following formulas: [drawing 4] The product formation at time t may be expressed as: [drawing 5] […]
pKi: −log10 of the molar value.

Here is how some compounds turned out for pKi.
CC(C)[C@H](NC(=O)c1cc2ccccc2n1CC(=O)O)C(=O)NC(CC(=O)O)C(=O)CF (stereo partly shown)
> 6.00
CC(C)[C@H](NC(=O)c1cc2ccccc2n1-c1ccccc1)C(=O)NC(CC(=O)O)C(=O)CF (stereo partly shown)
> 6.00
CC(C)C(NC(=O)c1cc2ccccc2n1CCCc1ccccc1)C(=O)NC(CC(=O)O)C(=O)CF (stereo not shown)
> 6.00

Now, please, on to the next compound.
Q) Report pKi for Cc1c(C(=O)NC(C(=O)NC(CC(=O)O)C(=O)COc2ccccc2C(N)=O)C(C)C)n(C)c2ccccc12 (stereo not shown) please.
A) > 6.00

----------
biological target: mICE (Mus musculus, UniProt P29452); experiment: Fluorescence enzyme assay, IC50 for ICE (Example 1A); format: biochemical; details: Table 1, Formula A; 30 min preincubation, room temperature; read-out: mICE IC50
EXPERIMENTAL READOUT: IC50 (nM)

C[C@H](NC(=O)c1cc2ccccc2n1Cc1ccccc1)C(=O)N[C@H](C=O)CC(=O)O
393
CC(NC(=O)c1cc2ccccc2n1CCC(=O)O)C(=O)NC(C=O)CC(=O)O (centres unmarked)
198
CC(C)C(NC(=O)c1cc2ccccc2n1C)C(=O)NC(C=O)CC(=O)O (centres unmarked)
531

(1) CC(NC(=O)c1cc2ccccc2n1CC(=O)O)C(=O)N[C@H](C=O)CC(=O)O (some centres unmarked)
(2) Cn1c(C(=O)NCC(=O)N[C@H](C=O)CC(=O)O)cc2ccccc21
Q) Decide: 1 or 2 , by lowest recorded IC50. Answer by stating the label of the chosen item.
A) 1
(1: 1630 nM, 2: 34700 nM)

----------
The reader will find reported IC50 values listed item by item below.
Molecular target: UniProtKB P42574
Sequence (P42574 29-277): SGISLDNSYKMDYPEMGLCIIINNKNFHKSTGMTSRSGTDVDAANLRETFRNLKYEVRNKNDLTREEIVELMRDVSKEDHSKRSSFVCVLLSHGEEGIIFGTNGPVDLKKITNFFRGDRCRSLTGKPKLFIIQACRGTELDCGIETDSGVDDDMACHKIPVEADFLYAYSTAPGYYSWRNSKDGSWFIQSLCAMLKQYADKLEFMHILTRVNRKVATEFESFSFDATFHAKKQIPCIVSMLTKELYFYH

Here is how some compounds turned out for IC50.
C[C@H](NC(=O)c1cc2ccccc2n1Cc1ccccc1)C(=O)N[C@H](C=O)CC(=O)O
> 50 µM
C=CCCn1c(C(=O)NC(C(=O)NC(C=O)CC(=O)O)C(C)C)cc2ccccc21 (stereo not drawn)
1.45 µM

Now, please, on to the next compound.
Q) Param readout = IC50; param system = UniProtKB P42574; param query = CC(NC(=O)c1cc2ccccc2n1CC(=O)O)C(=O)N[C@H](C=O)CC(=O)O (stereo partly drawn) ; response: value
A) > 50 µM
